- Read-out: Interleukin-1 alpha (IL1a), IL1A (gene 3552)
- Assay Method Text: BSK_BE3C_IL1a: BioMAP Diversity Plus: BE3C Assay for Interleukin-1 alpha (IL1a) Biomarker Activity (AID 2283016)
- Condition Context: primary human bronchial epithelial cells; actives raise or lower the signal
Active and inactive are the calls of the source. Rule for the calls: active = hit-call score of the fitted dose curve at least 0.9, where 1 is the maximum; inactive = score below 0.9.
Test Readout: outcome

Compound | Test Value
N#Cc1cc(Br)c(O)c(Br)c1 | inactive
Oc1ccccc1-c1ccccc1 | inactive
COc1nc(C)nc(NC(=O)NS(=O)(=O)c2ccccc2CCC(F)(F)F)n1 | inactive
CCOC(=O)C(Cl)Cc1cc(-n2nc(C)n(C(F)F)c2=O)c(F)cc1Cl (configuration not stated) | inactive
COP(N)(=O)SC (configuration not stated) | inactive
CS/C(C)=N/OC(=O)N(C)SN(C)C(=O)O/N=C(\C)SC | inactive

// below: outcome requested for another compound
Req: Param item = O=C(O)COc1nc(Cl)c(Cl)cc1Cl ; retrieve measured outcome.
Resp: inactive

---

- Read-out: Lipoprotein lipase (LPL), LPL (gene 4023)
- Assay Method Text: LTEA_HepaRG_LPL: Life Technologies and Expression Analysis (LTEA) Assay for Lipoprotein lipase (LPL) using HepaRG (AID 2283515)
- Condition Context: mRNA level, 48 h; actives raise or lower the signal
Calls of active or inactive are those of the source. How the source made its calls: active means hit-call score of the fitted dose curve at least 0.9, where 1 is the maximum; inactive means score below 0.9.
Could you please pick one outcome from this set? T = active, F = inactive

Below are worked cases with known answers.
Molecule | Class Name
Fc1ccc(Oc2ccnc3cc(Cl)cc(Cl)c23)cc1 | F
C=CCC1=C(C)[C@@H](OC(=O)[C@@H]2[C@@H](C=C(C)C)C2(C)C)CC1=O | F
CC(C)Oc1cc(-n2nc(C(C)(C)C)oc2=O)c(Cl)cc1Cl | T
CNC(=S)S | F
CN(C)C(=S)SSC(=S)N(C)C | F

Req: Outcome logged for CC(C)C1(C)N=C(c2nc3ccccc3cc2C(=O)O)NC1=O (stereo unspecified) in this assay:
Resp: F

---

- Assay Method Text: CCTE_Mundy_HCI_Cortical_Synap_Neur_Matur_NeuriteSpotCountPerNeuriteLength: CCTE's Synaptogenesis and Neurite Maturation Assay in rat cortical cells for Neurite Spot Count per Neurite Length, Mundy Lab (AID 2284210)
The source made the active and inactive calls. How the source made its calls: active means hit-call score of the fitted dose curve at least 0.9, where 1 is the maximum; inactive means score below 0.9.
Test Readout: AC50

Examples with their reported AC50 follow.
Compound | AC50
CCCCOC(=O)c1ccccc1C(=O)OCCCC | 84.1 µM (active)
CCOC(=O)CC(SP(=S)(OC)OC)C(=O)OCC (stereo unspecified) | inactive
Cc1ccc(-c2c(Cl)nc(C#N)n2S(=O)(=O)N(C)C)cc1 | 73.3 µM (active)
CC(C)(C)c1ccc(CSc2cnn(C(C)(C)C)c(=O)c2Cl)cc1 | 0.000994 µM (active)
C=CCC1=C(C)C(OC(=O)C2C(C=C(C)C)C2(C)C)CC1=O (stereo unspecified) | inactive

Could I get AC50 for every one of these entries?
1. CCCCNC(=O)n1c(NC(=O)OC)nc2ccccc21
2. CCOc1cc(Oc2ccc(C(F)(F)F)cc2Cl)ccc1[N+](=O)[O-]
3. COC(=O)N(OC)c1ccccc1COc1ccn(-c2ccc(Cl)cc2)n1
4. CO/C=C(/C(=O)OC)c1ccccc1Oc1cc(Oc2ccccc2C#N)ncn1

Resp:
["inactive", "14.3 µM (active)", "0.0823 µM (active)", "5.11 µM (active)"]

Below is a list of compounds. For each, state its recorded AC50.
1. CN(C)C(=S)SSC(=S)N(C)C
2. C=CC1(C)OC(=O)N(c2cc(Cl)cc(Cl)c2)C1=O (stereo unspecified)

Resp:
["0.0765 µM (active)", "inactive"]

---

- Read-out: ATP-citrate lyase (ACLY), ACLY (gene 47)
- Assay Method Text: LTEA_HepaRG_ACLY: Life Technologies and Expression Analysis (LTEA) Assay for ATP-citrate lyase (ACLY) using HepaRG (AID 2283466)
- Condition Context: mRNA level, 48 h; actives raise or lower the signal
The source made the active and inactive calls. Rule for the calls: active = hit-call score of the fitted dose curve at least 0.9, where 1 is the maximum; inactive = score below 0.9.
Pick from label 1 = active, label 0 = inactive when you respond.

A selection of reference data follows.
Molecule | Class Name
Cc1c(F)c(F)c(COC(=O)C2C(/C=C(\Cl)C(F)(F)F)C2(C)C)c(F)c1F (configuration not stated) | label 0
Cc1cc(Cl)ccc1OCC(=O)O | label 0
CCOP(=S)(OCC)SCn1c(=O)oc2cc(Cl)ccc21 | label 0
COc1nc(NC(C)C)nc(NC(C)C)n1 | label 0
C=CCC1=C(C)[C@@H](OC(=O)[C@@H]2[C@@H](C=C(C)C)C2(C)C)CC1=O | label 0

Req: Dear all, I need the recorded test outcome for N#Cc1nn(-c2c(Cl)cc(C(F)(F)F)cc2Cl)c(N)c1S(=O)C(F)(F)F (configuration not stated) , thank you.
Resp: label 0

Req: Just curious, what result did CCOC(=O)C(Cl)Cc1cc(-n2nc(C)n(C(F)F)c2=O)c(F)cc1Cl (configuration not stated) get here?
Resp: label 0

Req: Short answer needed: outcome of this test for CNC(=S)S ?
Resp: label 0

---

- Assay Method Text: ATG_TA_CIS: Attagene CIS-FACTORIAL HepG2 Assay for human TA Basal Promoter (AID 2282964)
- Condition Context: HepG2 Attagene CIS-factorial TA basal promoter reporter; actives raise or lower the signal
The source made the active and inactive calls. The calls were made as follows: active = hit-call score of the fitted dose curve at least 0.9, where 1 is the maximum; inactive = score below 0.9.
Field 'call' accepts active, inactive

Compound | Class Name
C#CCOS(=O)OC1CCCCC1Oc1ccc(C(C)(C)C)cc1 (stereo unspecified) | inactive
CO/C=C(/C(=O)OC)c1ccccc1Oc1cc(Oc2ccccc2C#N)ncn1 | inactive
CC1COC(Cn2cncn2)(c2ccc(Oc3ccc(Cl)cc3)cc2Cl)O1 (stereo unspecified) | inactive
CNC(=O)ON=CC(C)(C)SC | inactive
N#Cc1cc(Br)c(O)c(Br)c1 | inactive

Req: Fill in: this test's call for CCOC(=O)C(Cl)Cc1cc(-n2nc(C)n(C(F)F)c2=O)c(F)cc1Cl (stereo unspecified) is ___
Resp: inactive

Req: Which outcome did this test record for the compound CC(C)(C)c1ccc(CSc2cnn(C(C)(C)C)c(=O)c2Cl)cc1 ?
Resp: inactive

---

- Read-out: glucuronosyltransferase (UGT1A1), UGT1A1 (gene 54658)
- Assay Method Text: CLD_UGT1A1_48hr: CellzDirect (CLD) Gene Expression Assay for glucuronosyltransferase (UGT1A1) at 48 hours (AID 2283709);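 note: actives increase expression relative to DMSO so potency refers to induction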
Inconclusive results are not listed. Calls of active or inactive are those of the source. Rule for the calls: active = hit-call score of the fitted dose curve at least 0.9, where 1 is the maximum; inconclusive = response in the unintended direction; inactive = score below 0.9.
In this exercise, the only acceptable responses are label 1 = active, label 0 = inactive

Previously resolved entries follow.
Molecule | Class Name
CO/C=C(/C(=O)OC)c1ccccc1Oc1cc(Oc2ccccc2C#N)ncn1 | label 0
C=CCC1=C(C)[C@@H](OC(=O)[C@@H]2[C@@H](C=C(C)C)C2(C)C)CC1=O | label 1
C=CC1(C)OC(=O)N(c2cc(Cl)cc(Cl)c2)C1=O (stereo not drawn) | label 0
Oc1ccccc1-c1ccccc1 | label 0
CC(C)(C)c1ccc(CSc2cnn(C(C)(C)C)c(=O)c2Cl)cc1 | label 0
N#CC(CCc1ccc(Cl)cc1)(Cn1cncn1)c1ccccc1 (stereo not drawn) | label 0

Req: Per the assay record, what outcome was assigned to CS/C(C)=N/OC(=O)N(C)SN(C)C(=O)O/N=C(\C)SC ?
Resp: label 0

Req: What did this assay record as the result for CCOC(=O)CC(SP(=S)(OC)OC)C(=O)OCC (stereo not drawn) ?
Resp: label 0

---

- Assay Method Text: STM_H9_OrnithineISnorm_perc: Stemina devTOX quickPredict H9 human embryonic stem cell (hESC)-based Assay for Ornithine (ORN) Metabolite Biomarker, Normalized (AID 2283712);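 note: ornithine released into spent medium during last day measured by mass spectrometry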
- From the text: STM_H9_secretome utilizes undifferentiated H9 cells to measure relative changes in two metabolites, ornithine (ORN) and cystine (CYSS) in the secretome, targeting a critical drop in the ORN/CYSS ratio as a biomarker for developmental toxicity.STM_H9_OrnithineISnorm is one of 10 components calculated in the STM_H9_secretome assay. […]
Activity calls are given as the source filed them. The calls were made as follows: active = hit-call score of the fitted dose curve at least 0.9, where 1 is the maximum; inactive = score below 0.9.
Outcomes you can answer with include only these: active, inactive

Req: Outcome? C#CCOS(=O)OC1CCCCC1Oc1ccc(C(C)(C)C)cc1 (stereo unspecified)
Resp: active

Req: Can you look up the reported call for CCc1nn(C)c(C(=O)NCc2ccc(C(C)(C)C)cc2)c1Cl for me?
Resp: active

Req: Query: recorded result category for CCNc1nc(Cl)nc(NC(C)C)n1 in this test
Resp: active

Req: Please share the test call associated with CN(C)C(=S)SSC(=S)N(C)C .
Resp: active

Req: Tell me the recorded outcome of this test for CON(C)C(=O)Nc1ccc(Cl)c(Cl)c1 .
Resp: active

Req: Tell me the assay call for CO/C=C(/C(=O)OC)c1ccccc1Oc1cc(Oc2ccccc2C#N)ncn1 please.
Resp: inactive

---

- Assay Method Text: CCTE_Shafer_MEA_acute_per_burst_spike_number_mean: CCTE's Neural Acute Assay for Average Number of Spikes Per Burst, Shafer Lab (AID 2284015);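 note: hits are decreases in mean spikes per burst versus baseline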
The source made the active and inactive calls. The calls were made as follows: active = hit-call score of the fitted dose curve at least 0.9, where 1 is the maximum; inactive = score below 0.9.
Thanks in advance; please answer with one of these: true (1) for active, false (0) for inactive

Illustrative cases are given below, each with its answer.
Compound | Class Name
CS/C(C)=N/OC(=O)N(C)SN(C)C(=O)O/N=C(\C)SC | false (0)
O=C(O)c1nc(Cl)ccc1Cl | false (0)

Req: # lookup: test call for CC(Oc1ccc(Cl)cc1Cl)C(=O)O (centres undefined)
Resp: false (0)

Req: Which outcome was assigned to CC(C)(C)c1ccc(CSc2cnn(C(C)(C)C)c(=O)c2Cl)cc1 in this test?
Resp: true (1)
